Biological target: Thermolysin (Bacillus thermoproteolyticus, UniProt P00800)
Sequence (P00800 whole entry): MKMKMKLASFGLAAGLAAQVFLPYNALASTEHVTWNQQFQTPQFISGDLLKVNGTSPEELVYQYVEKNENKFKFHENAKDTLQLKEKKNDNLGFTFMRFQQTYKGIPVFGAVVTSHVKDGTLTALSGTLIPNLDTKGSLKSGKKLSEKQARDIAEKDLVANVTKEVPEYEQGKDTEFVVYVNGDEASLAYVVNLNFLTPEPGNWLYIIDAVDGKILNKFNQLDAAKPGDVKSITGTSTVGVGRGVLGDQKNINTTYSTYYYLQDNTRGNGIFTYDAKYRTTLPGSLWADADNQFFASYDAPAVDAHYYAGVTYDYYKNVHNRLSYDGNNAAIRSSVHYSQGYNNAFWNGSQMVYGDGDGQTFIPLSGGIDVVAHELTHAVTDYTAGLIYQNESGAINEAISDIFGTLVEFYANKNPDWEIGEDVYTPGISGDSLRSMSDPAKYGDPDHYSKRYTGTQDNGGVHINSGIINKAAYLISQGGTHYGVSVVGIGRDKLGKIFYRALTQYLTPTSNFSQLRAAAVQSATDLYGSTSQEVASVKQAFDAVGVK
readout name: Ki (µM)
Respond numerically; units are µM and should not be typed.

Please tell me: Ki of C[C@H](NC(=O)[C@H](Cc1ccccc1)NS(=O)(=O)O)C(=O)NCC(N)=O , system Thermolysin (Bacillus thermoproteolyticus, UniProt P00800)?
4270

Follow-up item: C[C@H](NC(=O)[C@H](Cc1ccccc1)NP(=O)(O)S)C(=O)NCC(N)=O (stereo partly specified)
6.92

Follow-up item: C[C@H](NC(=O)[C@H](Cc1ccccc1)C(=O)NO)C(=O)NCC(N)=O
0.661

Follow-up item: O=C(O)CC(=O)NC(CS)Cc1ccccc1 (stereo unspecified)
2.29

Follow-up item: CC(C)CC(N)C(=O)NO (stereo unspecified)
191

Follow-up item: CC(C)CC(CP(=O)(O)CNC(=O)OCc1ccccc1)C(=O)NC(C)C(=O)O (stereo unspecified)
0.0186

Follow-up item: CCCCCCP(=O)(O)CC(CC(C)C)C(=O)NC(Cc1c[nH]c2ccccc12)C(=O)NC (stereo unspecified)
0.0525

Follow-up item: CC(NC(=O)C(Cc1ccccc1)C(=O)NO)C(=O)NCC(=O)Nc1ccc([N+](=O)[O-])cc1 (stereo unspecified)
0.427

Follow-up item: CC(C)CC(NC(CCNC(=O)CNC(=O)OCc1ccccc1)C(=O)O)C(=O)NC(Cc1ccccc1)C(=O)O (stereo unspecified)
0.407

Follow-up item: O=C(CCc1ccccc1)NC(Cc1ccccc1)C(=O)O (stereo unspecified)
1620

Follow-up item: CC(C)CC(OP(=O)(O)C(Cc1ccccc1)NC(=O)OCc1ccccc1)C(=O)NC(C)C(=O)O (stereo unspecified)
0.0447

====

What Ki was measured for each of the following?
Biological target: Thermolysin (Bacillus thermoproteolyticus, UniProt P00800)
Sequence (P00800 whole entry): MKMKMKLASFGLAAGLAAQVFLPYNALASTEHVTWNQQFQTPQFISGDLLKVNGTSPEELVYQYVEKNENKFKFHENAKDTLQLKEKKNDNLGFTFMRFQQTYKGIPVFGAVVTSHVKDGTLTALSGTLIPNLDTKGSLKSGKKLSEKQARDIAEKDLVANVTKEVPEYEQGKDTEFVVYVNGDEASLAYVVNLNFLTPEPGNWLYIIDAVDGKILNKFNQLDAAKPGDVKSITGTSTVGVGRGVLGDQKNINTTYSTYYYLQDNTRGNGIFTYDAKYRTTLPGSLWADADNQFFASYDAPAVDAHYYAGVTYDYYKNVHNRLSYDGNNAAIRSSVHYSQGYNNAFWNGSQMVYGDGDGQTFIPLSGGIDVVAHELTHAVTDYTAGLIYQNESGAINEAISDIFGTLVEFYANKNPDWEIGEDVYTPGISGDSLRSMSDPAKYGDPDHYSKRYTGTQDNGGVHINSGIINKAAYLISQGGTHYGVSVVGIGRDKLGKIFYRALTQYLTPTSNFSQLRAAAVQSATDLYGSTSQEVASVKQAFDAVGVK
Residues, ends and D or L forms follow the SMILES beside them. *: point of attachment. Cbz = O=C(OCc1ccccc1)*
Respond numerically; units are µM and should not be typed.

Give the measured Ki of O=C(O)C(Cc1ccccc1)NP(=O)(O)O (stereo not given) .
72.4

Follow-up item: CC(C)CC(OP(=O)(O)CNC(=O)OCc1ccccc1)C(=O)NC(Cc1ccccc1)C(=O)O (stereo not given)
53.7

Follow-up item: CC(=O)N(O)[C@@H](CC(C)C)C(=O)N[C@@H](C)C(=O)NCC(N)=O
3390

Follow-up item: CC(C)CC(OP(=O)(O)C(C)NC(=O)OCc1ccccc1)C(=O)NC(C)C(=O)O (stereo not given)
1.82

Follow-up item: CC(=O)CC(=O)N[C@@H](Cc1ccccc1)C(=O)N[C@@H](C)C(=O)NCC(N)=O
3090

Follow-up item: CC(C)C[C@H](NC(=O)OCc1ccccc1)C(=O)NCC(N)=O (Cbz-Leu-Gly-NH2)
3090

Follow-up item: CC(C)CC(OP(=O)(O)C(CC(C)C)NC(=O)OCc1ccccc1)C(=O)NC(C)C(=O)O (stereo not given)
0.676

Follow-up item: CC(NC(=O)C(Cc1ccccc1)NP(=O)(O)O)C(=O)NCC(N)=O (stereo not given)
2.57

Follow-up item: CCOC(=O)C(Cc1ccccc1)C(=O)NO (stereo not given)
20

Follow-up item: CCCCC(NC(CC(C)C)C(=O)NC(Cc1ccccc1)C(=O)O)C(=O)O (stereo not given)
3800

Hey, just so you know, these numbers are from ChEMBL document CHEMBL1136053.
